Item-by-item account of GI50
- Test system: DU-145
- procedure.text: Growth inhibition of human DU145 cells incubated for 48 hrs by sulforhodamine B assay
- Format: functional, cell-based
- conditions.used: DU-145, 48 h, read-out: GI50
parameter: GI50 (nM)

INSERT INTO results (entry_smiles, reading_unit, reported_measurement) VALUES
  ('COc1cc(Cl)cc(-c2nn(-c3cccc(NC(=O)Nc4cc(C(F)(F)F)cc(C(F)(F)F)c4)c3)cc2-c2ccncc2)c1', 'nM', 459),
  ('O=C(Nc1cccc(-n2cc(-c3ccncc3)c(-c3cc(O)cc(Cl)c3)n2)c1)Nc1ccc(Cl)c(Cl)c1', 'nM', 2500),
  ('O=C(Nc1cccc(-n2cc(-c3ccncc3)c(-c3cc(O)cc(Cl)c3)n2)c1)Nc1ccc(Cl)c(C(F)(F)F)c1', 'nM', 3770),
  ('COc1cc(Cl)cc(-c2nn(-c3cccc(NC(=O)Nc4ccc(Cl)c(Cl)c4)c3)cc2-c2ccncc2)c1', 'nM', 3000),
  ('COc1cc(Cl)cc(-c2nn(-c3cccc(NC(=O)Nc4cccc(C(F)(F)F)c4)c3)cc2-c2ccncc2)c1', 'nM', 2610);
